test system: HEK293T-Gα16gust44 cells transfected with empty vector (mock); test: Calcium imaging assay (FLIPR), empty vector control (mock); type: cell-based; conditions: Mock (sheet Tas2r144); conc. 0,03 mM
value.kind: Δ F/F

{"smiles.representation": "C[C@H](CCC(=O)NCCS(=O)(=O)O)[C@H]1CC[C@H]2[C@@H]3CC[C@@H]4C[C@H](O)CC[C@]4(C)[C@H]3CC[C@]12C", "Δ F/F": 0.0003601}
{"smiles.representation": "C[C@H](CCC(=O)NCC(=O)O)[C@H]1CC[C@H]2[C@@H]3[C@H](O)C[C@@H]4C[C@H](O)CC[C@]4(C)[C@H]3C[C@H](O)[C@]12C", "Δ F/F": "-3.983e-5"}
{"smiles.representation": "C[C@H](CCC(=O)O)[C@H]1CC[C@H]2[C@@H]3[C@H](O)C[C@@H]4C[C@H](O)CC[C@]4(C)[C@H]3C[C@H](O)[C@]12C", "Δ F/F": 0.0001706}

Alright, here's another compound for you.
Lab note: HEK293T-Gα16gust44 cells transfected with empty vector (mock) assay, enter Δ F/F for C[C@H](CCC(=O)NCCS(=O)(=O)O)[C@H]1CC[C@H]2[C@@H]3[C@H](O)C[C@@H]4C[C@H](O)CC[C@]4(C)[C@H]3C[C@H](O)[C@]12C here 0.0001367
